Listed below: Transformation efficiency (vs no CSP), S. mutans wild-type UA159, 5 µg/ml peptide values for each entry.
- measured-on: T1, S. mutans ComD protein (histidine kinase) (Streptococcus mutans)
- T1 chain: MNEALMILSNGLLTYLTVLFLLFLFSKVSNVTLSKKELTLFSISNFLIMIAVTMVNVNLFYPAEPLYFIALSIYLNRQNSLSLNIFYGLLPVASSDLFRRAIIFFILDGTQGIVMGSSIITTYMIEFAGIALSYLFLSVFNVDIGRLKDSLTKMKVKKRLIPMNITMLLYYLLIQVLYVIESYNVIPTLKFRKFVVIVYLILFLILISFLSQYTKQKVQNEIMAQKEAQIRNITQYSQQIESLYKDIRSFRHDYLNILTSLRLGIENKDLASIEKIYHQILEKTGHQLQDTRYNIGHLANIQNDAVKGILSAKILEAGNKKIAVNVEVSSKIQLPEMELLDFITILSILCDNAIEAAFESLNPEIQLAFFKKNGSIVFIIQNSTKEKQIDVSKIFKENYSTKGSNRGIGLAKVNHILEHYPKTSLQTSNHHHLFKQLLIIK
- test-method-notes: cell-based or functional assay
experimental-readout: Transformation efficiency (vs no CSP), S. mutans wild-type UA159, 5 µg/ml peptide

> print(dat)
                                     binder                     test.result
1  SGSSTFFRLFNRSFTQALGK [Peptide analog D1]   275 fold increase (vs no CSP)
2  SGTLSTFFRLFNRSFTQA [Peptide analog B3 (JH1005 CSP sequence)]   195 fold increase (vs no CSP)
3  SGSLSTFFRLFNRSFTQALK [Peptide analog F1]   541 fold increase (vs no CSP)
4  SGSLSTFFRLFNRSFTQAGK [Peptide analog G1]   848 fold increase (vs no CSP)
5  SGSLSTFFRLFNRSFTQLGK [Peptide analog H1]    18 fold decrease (vs no CSP)
6  SGSLSTFFRLFNRSFTQALGK [S. mutans competence signal peptide (CSP), mature wild-type CSP sequence]  1550 fold increase (vs no CSP)
7  SGSLSTFFRLFNRSFTQALGA [Peptide analog G2]    56 fold increase (vs no CSP)
